pKi values by entry
- TARGET SYSTEM: PNP from H. pylori strain 26695 (Helicobacter pylori, UniProt P56463)
- Construct: made in house; host or cells: E. coli
- Sequence (P56463 whole entry): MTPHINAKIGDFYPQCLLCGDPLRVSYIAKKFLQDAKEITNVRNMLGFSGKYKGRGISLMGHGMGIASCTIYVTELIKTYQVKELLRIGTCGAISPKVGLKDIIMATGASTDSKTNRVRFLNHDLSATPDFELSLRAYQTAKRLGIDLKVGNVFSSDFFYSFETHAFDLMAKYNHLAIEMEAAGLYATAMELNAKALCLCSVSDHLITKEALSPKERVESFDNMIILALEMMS
- ASSAY PROTOCOL: Inhibition of PNP from H. pylori, spectrophotometric phosphorolysis assay
- Assay type: biochemical
- DETAILS: 7-methylguanosine substrate, 25° C., pH 7.0, 50 mM phosphate; mixed type model; read-out: Kiu
# reply with the number alone; pKi is -log10 of concentration in mol/L

Clc1nc(Cl)c2[nH]cnc2n1
4.63
Clc1nc(SCc2ccccc2)c2[nH]cnc2n1
5.68
OC[C@H]1O[C@@H](n2cnc3c(SCc4ccccc4)nc(Cl)nc32)C[C@@H]1O
5.54
c1ccc(CSc2ncnc3nc[nH]c23)cc1
5.09

Find the measured pKi of Clc1nc(OCc2ccccc2)c2[nH]cnc2n1 with PNP from H. pylori strain 26695 (Helicobacter pylori, UniProt P56463) as test system.
5.34

---

- TARGET SYSTEM: PNP from H. pylori strain 26695 (Helicobacter pylori, UniProt P56463)
- Construct: made in house; host or cells: E. coli
- ASSAY PROTOCOL: Inhibition of PNP from H. pylori, spectrophotometric phosphorolysis assay
- Assay type: biochemical
- DETAILS: guanosine as a substrate; mixed type model; read-out: Kic
VALUE TYPE: pKi
# reply with the number alone; pKi is -log10 of concentration in mol/L

Find the measured pKi of OC[C@H]1O[C@@H](n2cnc3c(SCc4ccccc4)nc(Cl)nc32)C[C@@H]1O [6BnS-2Cl-Pu-9dr] with PNP from H. pylori strain 26695 (Helicobacter pylori, UniProt P56463) as test system.
4.90

---

- TARGET SYSTEM: PNP from H. pylori strain 26695 (Helicobacter pylori)
- Construct: made in house; host or cells: E. coli
- ASSAY PROTOCOL: Inhibition of PNP from H. pylori, spectrophotometric phosphorolysis assay
- Format: biochemical
- DETAILS: 7-methylguanosine substrate, 25° C., pH 7.0, 50 mM phosphate; mixed type model; read-out: Kic
pKi: −log10 of the molar value.
# pKi >= 5 gives Met, anything below gives Not met

Study these solved cases before continuing.
Clc1nc(Cl)c2[nH]cnc2n1
Not met
Clc1nc(OCc2ccccc2)c2[nH]cnc2n1
Not met

In the following, a different compound is considered.
Confirm if pKi reported for the compound OC[C@H]1O[C@@H](n2cnc3c(SCc4ccccc4)nc(Cl)nc32)C[C@@H]1O is 5 or above.
Met

---

- TARGET SYSTEM: PNP from H. pylori strain 26695 (Helicobacter pylori, UniProt P56463)
- Construct: made in house; host or cells: E. coli
- ASSAY PROTOCOL: Inhibition of PNP from H. pylori, spectrophotometric phosphorolysis assay
- Format: biochemical
- DETAILS: 7-methylguanosine substrate, 25° C., pH 7.0, 50 mM phosphate; uncompetitive model; read-out: Kiu
VALUE TYPE: Ki (nM)
Unit nM implied. Number only.

Clc1nc(SCc2ccccc2)c2[nH]cnc2n1
1800

Field: next molecule
Give a short answer stating reported Ki for Clc1nc(OCc2ccccc2)c2[nH]cnc2n1 .
3800

---

- TARGET SYSTEM: PNP from H. pylori strain 26695 (Helicobacter pylori, UniProt P56463)
- Construct: made in house; host or cells: E. coli
- ASSAY PROTOCOL: Inhibition of PNP from H. pylori, spectrophotometric phosphorolysis assay
- Format: biochemical
- DETAILS: formycins; kinetic methods of Example 1; read-out: inhibition constant
Ki values by entry
Unit µM implied. Number only.

O=c1[nH]cnc2c([C@@H]3O[C@H](CO)[C@@H](O)[C@H]3O)n[nH]c12 [formycin B]
1

Give a short answer stating reported Ki for Nc1ncnc2c([C@@H]3O[C@H](CO)[C@@H](O)[C@H]3O)[nH]nc12 [formycin A] .
14
